Experiment: Plasma AT2220 (1-deoxynojirimycin hydrochloride) pharmacokinetics by LC-MS/MS in Pompe patients
Assay type: in vivo, human
Settings: both sexes, human, plasma, oral, 50 mg and 100 mg doses; read-out: rate of absorption (Tmax)
property_measured: Tmax

Per the records, this compound ( OC[C@H]1NC[C@H](O)[C@@H](O)[C@@H]1O [AT2220] ) has Tmax equal to 2 to 3 h

This collection of values is drawn from patent US20150086530A1.
